Cited source for all entries: PubChem BioAssay (NCI)

system: NCI-H226 lung; experiment: NCI-60 one-dose screen, 48 h (100 = growth as untreated, 0 = no growth, -100 = all killed); conditions: 10 µM unless noted
This is part of a sample that, as a whole, favours compounds with a hit. Of some 83,000 tested, about 20% had one in any assay. Calls of active or inactive are those of the source. How the source made its calls: active means growth percent below 10; inactive means the rest.
Quantity: growth

{"columns": ["Compound", "Target Entity", "growth"],
 "data": [
  ["CC1=C([Se]CC(OC(=O)[C@@H](CSSC(C)(C)C)NC(=O)C(C)(C)C)C(=O)NCCCCCC(=O)OCc2ccccc2)C(=O)c2ccccc2C1=O (stereo partly drawn)", "NCI-H226 lung", "3.19% (active)"],
  ["O=C1C(=O)c2c(nc3ccc(Cl)cn23)-c2ccccc21", "NCI-H226 lung", "-53.9% (active)"]
]}

# growth measured on NCI-H226 lung for item CCCCCc1c(C)[nH]c(/C=C2\N=C(c3ccc[nH]3)C=C2OCc2ccccc2)c1C = -42.5% [100 µM] (active)

---

test system: HOP-92 NSCLC; experiment: NCI-60 one-dose screen, 48 h (100 = growth as untreated, 0 = no growth, -100 = all killed); conditions: 10 µM unless noted
About 83,000 compounds went through this panel and 20% of them were active in at least one assay; those are over-represented in the sample as a whole. The source made the active and inactive calls. How the source made its calls: active means growth percent below 10; inactive means the rest.
Items are presented alongside their recorded growth.

// CC(=O)N1N=C(c2ccc(C(F)(F)F)cc2)CC1c1ccc2c(c1)OCO2 (stereo unspecified) : growth value = 77.5% (inactive)

The compound Cc1ccccc1NC(=O)N/C(N)=N/c1nc2ccccc2s1 showed growth equal to 126% (inactive)

Record Nc1nc(SCc2cccnc2)c2ncn(C3OC(CO)C(O)C3O)c2n1 (stereo unspecified) . Reported growth: 78.1% (inactive)

Record summary for COc1cc2c(cc1OC)C(CC1(O)CCCCC1)N(S(=O)(=O)c1ccc(C)cc1)CC2 (stereo unspecified) : reported growth = -10.6% [100 µM] (active)

The value of growth measured for the compound CC1CC=CCC1C1OCC(C)(C)CO1 (stereo unspecified) turned out to be 106% (inactive)

The compound COc1cnc2c(c1)C(=O)c1c-2n(CCCNC(C)C)c(=O)c2cc(F)ccc12 showed growth equal to -8.3% (active)

---

Tested on: M14 melanoma
Assay: NCI-60 one-dose screen, 48 h
Conditions: 10 µM unless noted
Method: Growth inhibition of the M14 human tumor cell line is measured as a screen for anti-cancer activity. Cells are grown in 96 well plates and exposed to the test compound for 48 hours. Compounds are tested at a single concentration, which is 10^-5 M for most compounds. The reported endpoint is percent growth (GI% or GIPRCNT), where numbers from 0 - 100% represent growth inhibition, and numbers from -100% - 0 represent cell death. For example, a value of 40 represents 60% growth inhibition. […]
This is part of a sample that, as a whole, favours compounds with a hit. Of some 83,000 tested, about 20% had one in any assay. Active and inactive are the calls of the source. How the source made its calls: active means growth percent below 10; inactive means the rest.
Please state which outcome applies, choosing from 1 (active), 0 (inactive)

Worked examples, 3 compounds total:
{"columns": ["Molecular String", "Target Entity", "Class Name"],
 "data": [
  ["O=C(NCCNC(=O)Oc1cccc2ccccc12)Oc1cccc2ccccc12", "M14 melanoma", 0],
  ["O=C(/C=C/c1c(-c2ccccc2)[nH]c2ccccc12)S(=O)(=O)c1ccccc1", "M14 melanoma", 0],
  ["O=C(Oc1cccc2ccccc12)c1ccccc1C(=O)c1ccccc1", "M14 melanoma", 0]
]}

Query: So what was the verdict on Cc1ncc(C(=O)Nc2ccc(CN3CCN(C)CC3)c(C(F)(F)F)c2)cc1C#Cc1cncc2ncccc12 in this test?
Reply: 1

Query: What outcome does the record of this test show for COc1cc(-c2n[nH]nc2-c2ccccn2)cc(OC)c1OC ?
Reply: 0

---

system: SR leukemia; assay: NCI-60 one-dose screen, 48 h (100 = growth as untreated, 0 = no growth, -100 = all killed); conditions: 10 µM unless noted
About 83,000 compounds went through this panel and 20% of them were active in at least one assay; those are over-represented in the sample as a whole.
Quantity: growth (%)
# unit: % | format: bare number

Worked set:
{"columns": ["Compound", "Quantity", "Quantitative Result"],
 "data": [
  ["O=c1[nH]c(SCc2ccccc2)nc2nc(Nc3ccc(NC(=S)Nc4ccccc4)cc3)nc(-c3ccc(O)cc3O)c12", "growth", 54.8],
  ["COc1ccc(CNC(=O)c2c(C)n([O-])c3ccc(OC)cc3[n+]2=O)cc1", "growth", 90.4],
  ["CC1CN(/N=C/c2ccc([N+](=O)[O-])o2)C(=N)O1 (stereo not drawn)", "growth", 107],
  ["O=CN1N=C(c2ccc(Nc3ccnc4cc(Cl)ccc34)cc2)CC1c1ccc(Cl)cc1 (stereo not drawn)", "growth", -23.3],
  ["CCSc1nc(-c2ccc(F)cc2)c(C#N)c(=O)[nH]1", "growth", 118],
  ["CC[C@H]1CN2CCc3cc(OC)c(OC)cc3C2C[C@@H]1CC1NCCc2cc(OC)c(OC)cc21 (stereo partly drawn)", "growth", -9.39]
]}

// recorded growth for COc1ccc(C2CC(c3ccc(Nc4ccnc5cc(Cl)ccc45)cc3)=NN2C(C)=O)cc1 (stereo not drawn) : -9.45

The compound identified as Cc1ccc2c(c1)C(=O)/C(=C\Nc1ccc(C(N)=O)cc1)C(O)O2 (stereo not drawn) registered its growth at 97.1

---

test system: SK-MEL-2 melanoma; test: NCI-60 one-dose screen, 48 h (100 = growth as untreated, 0 = no growth, -100 = all killed); conditions: 10 µM unless noted
Compounds without any hit were thinned out: in the full panel of roughly 83,000, 20% have a hit.
Quantity: growth (%)
Write the answer as a number in %, unit excluded.

See these solved cases before continuing.
{"columns": ["Compound", "Target Entity", "Unit Abbreviation", "growth"],
 "data": [
  ["COc1ccc(C(=O)COc2ccc(/C=C3\\Oc4ccc5ccccc5c4C3=O)cc2)cc1", "SK-MEL-2 melanoma", "%", 77.9],
  ["C[C@H]1O[C@@H](O[C@H]2[C@@H](O)C[C@H](O[C@H]3[C@@H](O)C[C@H](O[C@H]4CC[C@]5(C)C6CC[C@]7(C)[C@@H](C8=CC(=O)OC8)CC[C@]7(O)C6CC[C@@H]5C4)O[C@@H]3C)O[C@@H]2C)C[C@H](O)[C@@H]1O (stereo partly drawn)", "SK-MEL-2 melanoma", "%", -68.5],
  ["Cc1cnc2nc(-c3ccc(N(C)C)cc3)cn2c1", "SK-MEL-2 melanoma", "%", 101]
]}

Form: compound = O=c1sc2ncnc3ncn1c32 ; growth = 81.9

// sample CCOC(=O)CCC(=O)O[C@H]1[C@H](O[C@@H]2[C@@H](C)[C@H](O[C@H]3C[C@@](C)(OC)[C@@H](O)[C@H](C)O3)[C@@H](C)C(=O)O[C@H](CC)[C@@](C)(O)[C@H](O)[C@@H](C)C(=O)[C@H](C)C[C@@]2(C)O)O[C@H](C)C[C@@H]1N(C)C , its growth was 121

growth measured on O=C(Nc1ccc(Cl)cc1)Nc1ccccc1CNc1nc(Nc2ccc(OCCN3CCCC3)cc2)ncc1Cl = 102

In plain terms, c1ccc(N2c3nc4ccccc4cc3Sc3cc4ccccc4nc32)nc1 has a documented growth of 39.4

Record O=[N+]([O-])c1cc([N+](=O)[O-])c(N2CCCC2)cc1NN=C(c1ccc(O)cc1)c1ccc(O)cc1 . Reported growth: -47.6

---

tested on: CCRF-CEM leukemia; test: NCI-60 one-dose screen, 48 h (100 = growth as untreated, 0 = no growth, -100 = all killed); settings: 10 µM unless noted
Compounds without any hit were thinned out: in the full panel of roughly 83,000, 20% have a hit.
Lab note: cut-off is 70%. Strictly less in growth is T. Exactly 70% or more is F.

Query: hey, is growth for CCSc1nc(Nc2ccc(S(=O)(=O)Nc3ccon3)cc2)c(C#N)c(-c2cccc(Br)c2)n1 lower than 70% or not?
Reply: F

Query: # check: growth < 70% for O=CNc1ccc2c(c1)Cc1cc([N+](=O)[O-])ccc1-2
Reply: T

---

test system: A498 renal; assay: NCI-60 one-dose screen, 48 h; settings: 10 µM unless noted
This is part of a sample that, as a whole, favours compounds with a hit. Of some 83,000 tested, about 20% had one in any assay. Calls of active or inactive are those of the source. Rule for the calls: active = growth percent below 10; inactive = the rest.
Log the outcome using a class from active, inactive

{"columns": ["Molecule", "Class Name"],
 "data": [
  ["O=Nc1c2cccnc2n2nnc3ccc(Cl)cc3c12", "inactive"],
  ["COc1ccc(NS(=O)(=O)N2CCCCC2)cc1", "inactive"],
  ["NS(=O)(=O)c1cc2c(cc1Cl)NC=NS2(=O)=O", "inactive"]
]}

Query: Any idea what this test logged for CC1CC=CCC1C1OCC(C)(C)CO1 (configuration not stated) ?
Reply: inactive

Query: Called result for COc1cc(OC)c2c(c1Cl)O[C@]1(C2=O)C(OCc2ccccc2)=CC(=O)C[C@H]1C
Reply: active

Query: Could you please tell me the result logged for O=C(O)c1ccc2cccnc2c1O in this assay?
Reply: inactive

Query: # lookup: test call for CCCCc1n(Cc2ccc3ccccc3c2)cc[n+]1Cc1ccc2ccccc2c1
Reply: active
